assay: Triclosan sulfonation in placental cytosol with 35S-PAPS; type: in vitro ADME, sheep; settings: sheep, sheep placental cytosol, pH 7.4
Recorded Metric: Km at 15 min (µM)
# number only, unit µM dropped from output

Query string: Which Km at 15 min value belongs to Oc1cc(Cl)ccc1Oc1ccc(Cl)cc1Cl ?
Result string: 1.14

###

Target: sheep placental cytosolic estrogen sulfotransferase (estradiol as substrate) (Ovis aries, UniProt A0ACI6NYW9)
Sequence (A0ACI6NYW9 1-296): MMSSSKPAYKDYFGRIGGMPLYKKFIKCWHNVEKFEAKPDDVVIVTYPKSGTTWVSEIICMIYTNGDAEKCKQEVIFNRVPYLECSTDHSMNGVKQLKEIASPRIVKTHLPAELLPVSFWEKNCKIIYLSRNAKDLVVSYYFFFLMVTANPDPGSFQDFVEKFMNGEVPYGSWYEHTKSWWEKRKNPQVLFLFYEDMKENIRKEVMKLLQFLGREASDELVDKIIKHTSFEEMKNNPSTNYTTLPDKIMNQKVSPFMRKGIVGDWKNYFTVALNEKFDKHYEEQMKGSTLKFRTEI
Recorded Metric: IC50 (µM)
# number only, unit µM dropped from output

Query string: Which IC50 value belongs to O=C(Nc1ccc(Cl)c(Cl)c1)Nc1ccc(Cl)cc1O [2′OH-TCC, 2′-hydroxy-triclocarban] ?
Result string: 0.31

Values compiled from paper PMC4789100.
